# EXPERIMENTAL SYSTEM: muscarinic receptors (3H-QNB), cerebral cortex
# EXPERIMENT DESCRIPTION: Radio ligand binding: displacement of the muscarinic antagonist 3H-Quinuclidinyl Benzilate (3H-QNB) from rat cerebral cortex membranes
# CONDITION SUMMARY: displacement of 0.27 nM 3H-QNB (muscarinic antagonist), 37° C., 30 min
pIC50: −log10 of the molar value. Counter-ions that a name gives are not always drawn.
MEASURE: pIC50

Some solved cases for reference:
• CON=C(C1=CCCN(C)C1)C(F)(F)F [E 4, oxalate salt] = 4.78
• CON=C(C#N)C1=CCCN(C)C1 [E 3, oxalate salt] = 5.02

A. CON=C(F)C1=CCCN(C)C1 [E 2, oxalate salt]
B. CO/N=C(\CF)C1=CCCN(C)C1 [E 6, oxalate salt]
C. CON=C(Cl)C1=CCCN(C)C1 [E 1, oxalate salt]
D. CO/N=C(\CF)C1=CCCNC1 [E 7, hydrochloride salt]
Prompt line: Hey, quick one: sort these by pIC50, low to high? A complete answer lists every label in the requested sequence.
Response line: D, B, C, A
(D: 4.77, B: 5.07, C: 5.55, A: 5.82)
